Source of measurements: PubChem BioAssay (NCI)

Tested on: PC-3 prostate
Run Description: NCI tumour cell line growth inhibition, 48 h; in the data active = GI50 below about 0.43 µM; inactive = the rest
Valid outcomes are listed here; reply with one: active, inactive

Consider the worked cases shown below.
Compound: CC(C)(C)OC(=O)N1CC(Cn2cc(C(F)(F)F)c3c(Cl)ncnc32)C1
Assigned Class: inactive
//
Compound: CSC1=Nc2c(c(C)c(-c3ccccc3)n2CCCCl)C2=NC(=O)CN12
Assigned Class: inactive
//
Compound: COc1ccc2[nH]c(-c3ccccc3)c(C=C(C#N)C#N)c2c1
Assigned Class: inactive
//
Compound: CCc1nc(-n2c(CC)nc3ccccc3c2=O)nc(N)c1-c1ccc(Cl)cc1
Assigned Class: inactive
//
Compound: COc1ccc2c(c1)C(=O)c1c-2c(OCCN(C)C)nc2cc(OC)ccc12
Assigned Class: inactive
//
Compound: COc1nc2c(cc1S(=O)(=O)c1ccccc1)CCc1c-2cnn1Cc1ccccc1
Assigned Class: inactive
//
Compound: O=C1c2ccc3c4c(ccc(c24)C(=O)N1CCCNCc1ccccc1)C(=O)N(CCCNCc1ccccc1)C3=O
Assigned Class: active
//
Compound: O=C1OCC2=C1C(c1cccc(C(F)(F)F)c1)c1cc3c(cc1N2CCO)OCO3 (stereo unspecified)
Assigned Class: inactive

Per the records of this test, what outcome belongs to COc1cc(-c2cc(-c3nc4cc(Cl)c(Cl)cc4[nH]3)[nH]n2)cc(OC)c1OC ?
inactive

# fetch the recorded call for COc1cc(-c2nc3ccccc3[nH]2)ccc1OCC(=O)N=Nc1c(O)[nH]c2ccc(Cl)cc12 here
inactive

Look up the recorded call for C=CC[N+]1(CCO)CCN=C1CCCCCCCCCCCCC (stereo unspecified) in this test.
inactive
